Below, each entry is listed alongside its reported DC50.
- tested.on: KAT2A (Homo sapiens, UniProt Q92830)
- Sequence (Q92830 whole entry): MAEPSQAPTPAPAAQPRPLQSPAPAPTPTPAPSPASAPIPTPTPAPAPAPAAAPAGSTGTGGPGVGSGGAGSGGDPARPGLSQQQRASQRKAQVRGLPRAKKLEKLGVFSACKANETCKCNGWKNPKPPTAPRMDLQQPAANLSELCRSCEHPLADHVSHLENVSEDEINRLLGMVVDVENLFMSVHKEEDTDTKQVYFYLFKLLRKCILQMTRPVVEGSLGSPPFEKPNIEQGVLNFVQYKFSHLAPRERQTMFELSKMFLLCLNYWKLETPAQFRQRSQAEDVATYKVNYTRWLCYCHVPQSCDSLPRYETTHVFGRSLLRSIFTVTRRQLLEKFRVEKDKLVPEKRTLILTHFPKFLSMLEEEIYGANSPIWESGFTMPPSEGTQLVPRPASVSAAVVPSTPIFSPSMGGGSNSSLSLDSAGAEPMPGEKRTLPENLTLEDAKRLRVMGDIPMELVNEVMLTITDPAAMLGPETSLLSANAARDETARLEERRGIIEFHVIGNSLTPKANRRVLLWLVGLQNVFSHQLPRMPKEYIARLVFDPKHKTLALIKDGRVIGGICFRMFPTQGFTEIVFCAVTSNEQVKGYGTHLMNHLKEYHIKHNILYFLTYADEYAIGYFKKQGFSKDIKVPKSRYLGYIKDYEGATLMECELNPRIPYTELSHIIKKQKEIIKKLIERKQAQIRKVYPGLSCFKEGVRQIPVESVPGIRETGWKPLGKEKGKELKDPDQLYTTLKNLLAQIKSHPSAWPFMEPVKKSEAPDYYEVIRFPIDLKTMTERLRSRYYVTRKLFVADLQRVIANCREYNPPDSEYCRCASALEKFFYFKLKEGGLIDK
- experiment.notes: KAT2A degradation, Western Blot (Jess), NCI-H1048 cells
- Type: cell-based
- Parameters: degrader, Western blot (Jess)
- condition.info: NCI-H1048 cells, KAT2A, 24 h, Western Blot, vs DMSO; read-out: KAT2A NCI-H1048 DC50

GET /values?item= Cc1cc(N2CCC3(CCN(C(=O)c4ccc([C@H]5C[C@@H](Nc6cnn(C)c(=O)c6Cl)CN(C)C5)cc4)CC3)CC2)c(F)cc1C1CCC(=O)NC1=O (stereo partly drawn) &system= KAT2A (Homo sapiens, UniProt Q92830) returns DC50: 1 to 30 nM

====

- tested.on: KAT2B (Homo sapiens)
- experiment.notes: KAT2B degradation, Western Blot (Jess), NCI-H1048 cells
- Format: cell-based
- Design: degrader, Western blot (Jess)
- condition.info: NCI-H1048 cells, KAT2B, 24 h, Western Blot, vs DMSO; read-out: KAT2B NCI-H1048 DC50
# reported DC50; entries follow

Illustrative cases are given below, each with its answer.
INSERT INTO measurements (compound, recorded_result) VALUES
  ('Cc1cc(N2CCC3(CCN(C(=O)c4ccc([C@H]5C[C@@H](Nc6cnn(C)c(=O)c6Br)CN(C)C5)cc4)CC3)CC2)ccc1C1CCC(=O)NC1=O (some centres unmarked) [Compound 265]', '< 1 nM'),
  ('Cn1ncc(N[C@@H]2C[C@H](c3ccc(C(=O)N4CCC5(CC4)CCN(c4ccc(C6CCC(=O)NC6=O)cc4)CC5)cc3)CN(CC3CC3)C2)c(Br)c1=O (some centres unmarked)', '< 1 nM'),
  ('CN1C[C@H](Nc2cnn(C)c(=O)c2Cl)C[C@H](c2ccc(C(=O)N3CCC4(CC3)CN(c3ccc(C5CCC(=O)NC5=O)c(F)c3)C4)cc2)C1 (some centres unmarked)', '> 30 nM'),
  ('CN1C[C@H](Nc2cnn(C)c(=O)c2Cl)C[C@H](c2ccc(CN3CCC(c4cccc(C5CCC(=O)NC5=O)c4)C(F)(F)C3)cc2)C1 (some centres unmarked)', '> 30 nM'),
  ('CN1C[C@H](Nc2cnn(C)c(=O)c2Br)C[C@H](c2ccc(C(=O)N3CCC4(CC3)CCN(c3ccc(C5CCC(=O)NC5=O)cn3)CC4)cc2)C1 (some centres unmarked)', '< 1 nM'),
  ('CN1C[C@H](Nc2cnn(C)c(=O)c2Br)C[C@H](c2ccc(C(=O)N3CCC4(CC3)CCN(c3ccc(C5CCC(=O)NC5=O)cc3F)CC4)cc2)C1 (some centres unmarked)', '< 1 nM'),
  ('CN1C[C@H](Nc2cnn(C)c(=O)c2Br)C[C@H](c2ccc(CN3CCN(c4ccc5c(c4)C(=O)N(C4CCC(=O)NC4=O)C5=O)CC3)cc2)C1 (some centres unmarked)', '< 1 nM');

Read the next record carefully.
Lab book: DC50 of CN1C[C@H](Nc2cnn(C)c(=O)c2Cl)C[C@H](c2ccc(C(=O)N3CCC4(CC3)CCN(c3ccc5nnn(C6CCC(=O)NC6=O)c5c3)CC4)cc2)C1 (some centres unmarked) noted as > 30 nM

====

- tested.on: KAT2B (Homo sapiens, UniProt Q92831)
- Sequence (Q92831 whole entry): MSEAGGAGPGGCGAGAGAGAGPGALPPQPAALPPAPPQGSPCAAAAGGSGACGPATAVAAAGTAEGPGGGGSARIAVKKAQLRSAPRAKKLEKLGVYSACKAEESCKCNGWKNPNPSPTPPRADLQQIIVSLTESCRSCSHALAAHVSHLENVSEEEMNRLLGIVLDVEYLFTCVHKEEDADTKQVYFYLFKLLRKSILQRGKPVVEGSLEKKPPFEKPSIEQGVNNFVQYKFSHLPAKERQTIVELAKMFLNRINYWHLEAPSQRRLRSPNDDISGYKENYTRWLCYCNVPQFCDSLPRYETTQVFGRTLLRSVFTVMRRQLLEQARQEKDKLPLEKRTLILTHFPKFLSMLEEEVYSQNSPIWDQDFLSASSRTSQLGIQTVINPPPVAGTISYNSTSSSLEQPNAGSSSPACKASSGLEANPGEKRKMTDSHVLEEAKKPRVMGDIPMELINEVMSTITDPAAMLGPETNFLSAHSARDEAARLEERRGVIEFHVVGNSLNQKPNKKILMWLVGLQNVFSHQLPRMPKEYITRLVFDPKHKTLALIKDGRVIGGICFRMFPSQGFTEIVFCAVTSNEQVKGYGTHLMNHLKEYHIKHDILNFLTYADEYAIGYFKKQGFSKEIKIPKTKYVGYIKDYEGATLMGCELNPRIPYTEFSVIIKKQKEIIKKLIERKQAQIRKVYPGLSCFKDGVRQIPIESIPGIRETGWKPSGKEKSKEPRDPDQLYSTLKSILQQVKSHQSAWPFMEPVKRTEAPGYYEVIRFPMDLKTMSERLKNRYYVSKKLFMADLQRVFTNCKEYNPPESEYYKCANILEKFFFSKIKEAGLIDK
- experiment.notes: KAT2B degradation, Western Blot (Jess), NCI-H1048 cells
- Assay type: cell-based
- Set-up: degrader, Western blot (Jess)
- condition.info: NCI-H1048 cells, KAT2B, 24 h, Western Blot, vs DMSO; read-out: KAT2B NCI-H1048 DC50
Known DC50 of a selection of compounds

INSERT INTO measurements (compound, recorded_result) VALUES
  ('CN1C[C@H](Nc2cnn(C)c(=O)c2Br)C[C@H](c2ccc(CN3CCN(c4ccc5nc(C6CCC(=O)NC6=O)ccc5c4)CC3)cc2)C1 (stereo partly shown) [Compound 385]', '1 to 30 nM'),
  ('CN1C[C@H](Nc2cnn(C)c(=O)c2Br)C[C@H](c2ccc(C(=O)N3CC(C#Cc4ccc(C5CCC(=O)NC5=O)cc4)C3)cc2)C1 (stereo partly shown) [Compound 337]', '> 30 nM'),
  ('CN1C[C@H](Nc2cnn(C)c(=O)c2Br)C[C@H](c2ccc(CN3CCN(c4ccc5cc(C6CCC(=O)NC6=O)cnc5c4)CC3)cc2)C1 (stereo partly shown) [Compound 299]', '1 to 30 nM'),
  ('COc1cc(N2CCC3(CCN(C(=O)c4ccc([C@H]5C[C@@H](Nc6cnn(C)c(=O)c6Br)CN(C)C5)cc4)CC3)CC2)cc(C)c1C1CCC(=O)NC1=O (stereo partly shown) [Compound 287]', '1 to 30 nM'),
  ('CN1C[C@H](Nc2cnn(C)c(=O)c2Cl)C[C@H](c2ccc(C(=O)N3CCC4(CCC(c5ccc6c(C7CCC(=O)NC7=O)cncc6c5)CC4)CC3)cc2)C1 (stereo partly shown) [Compound 329]', '< 1 nM');

Item: CN1C[C@H](Nc2cnn(C)c(=O)c2Cl)C[C@H](c2ccc(CN3C4CC3CN(c3cccc(C5CCC(=O)NC5=O)c3)C4)cc2)C1 (stereo partly shown) [Compound 354] | System: KAT2B (Homo sapiens, UniProt Q92831) | DC50: > 30 nM

Reported DC50 (KAT2B (Homo sapiens, UniProt Q92831)) for entry CN1C[C@H](Nc2cnn(C)c(=O)c2Cl)C[C@H](c2ccc(C(=O)N3CCC4(CC3)CCN(c3ccc(NC5CCC(=O)NC5=O)c(F)c3)CC4)cc2)C1 (stereo partly shown) [Compound 372] is 1 to 30 nM

The reported KAT2B (Homo sapiens, UniProt Q92831) DC50 of CN1C[C@H](Nc2cnn(C)c(=O)c2Br)C[C@H](c2ccc(C(=O)N3CCC4(CC3)CCN(c3ccc(OC5CCC(=O)NC5=O)cc3)CC4)cc2)C1 (stereo partly shown) [Compound 363] is 1 to 30 nM

So the reported DC50 for CN1C[C@H](Nc2cnn(C)c(=O)c2Br)C[C@H](c2ccc(C(=O)N3CCN(c4ccc5nc(C6CCC(=O)NC6=O)ccc5c4)CC3)cc2)C1 (stereo partly shown) [Compound 384] , on KAT2B (Homo sapiens, UniProt Q92831), turned out to be < 1 nM

DC50 for KAT2B (Homo sapiens, UniProt Q92831) with input CN1C[C@H](Nc2cnn(C)c(=O)c2Cl)C[C@H](c2ccc(C(=O)N3CCC4(CC3)CCN(c3ccc(C5CCC(=O)NC5=O)cn3)CC4)cc2)C1 (stereo partly shown) [Compound 2-52] equals < 1 nM

The compound Cc1c(N[C@@H]2C[C@H](c3ccc(C(=O)N4CCC5(CC4)CCN(c4cnc(C6CCC(=O)NC6=O)c(F)c4)CC5)cc3)CN(C)C2)cnn(C)c1=O (stereo partly shown) [Compound 272] on KAT2B (Homo sapiens, UniProt Q92831): DC50 was > 30 nM

The reported KAT2B (Homo sapiens, UniProt Q92831) DC50 of Cc1cc(N2CCC3(CCN(C(=O)c4ccc([C@H]5C[C@@H](Nc6cnn(C)c(=O)c6C)CN(C)C5)cc4)CC3)CC2)c(F)cc1C1CCC(=O)NC1=O (stereo partly shown) [Compound 244] is > 30 nM

Lab entry: KAT2B (Homo sapiens, UniProt Q92831) assay, compound Cc1ncsc1-c1ccc(CNC(=O)[C@@H]2C[C@@H](O)CN2C(=O)[C@@H](NC(=O)COCCOCCNC(=O)c2ccc(C3CC(Nc4cnn(C)c(=O)c4Br)CN(C)C3)cc2)C(C)(C)C)cc1 (stereo partly shown) [Compound 423] , DC50 = > 30 nM

Here CN1C[C@H](Nc2cnn(C)c(=O)c2Br)C[C@H](c2ccc(C(=O)N3CCC4(CC3)CCN(c3ccn(C5CCC(=O)NC5=O)c(=O)c3)CC4)cc2)C1 (stereo partly shown) [Compound 217] was tested on KAT2B (Homo sapiens, UniProt Q92831), and its DC50 came to > 30 nM

====

- tested.on: KAT2B (Homo sapiens)
- experiment.notes: KAT2B degradation, Western Blot (Jess), NCI-H1048 cells
- Assay type: cell-based
- Parameters: degrader, Western blot (Jess)
- condition.info: NCI-H1048 cells, KAT2B, 24 h, Western Blot, vs DMSO; read-out: KAT2B NCI-H1048 DC50
Recorded DC50, one value per entry.

# example entries with known answers
INSERT INTO assay_data (compound, tested_on, recorded_result) VALUES
  ('CN1C[C@H](Nc2cnn(C)c(=O)c2Br)C[C@H](c2ccc(C(=O)N3CCC(Oc4cccc(C5CCC(=O)NC5=O)c4)CC3)cc2)C1 (some centres unmarked)', 'KAT2B (Homo sapiens)', '> 30 nM'),
  ('CN1C[C@H](Nc2cnn(C)c(=O)c2Br)C[C@H](c2ccc(CN3CCN(c4cccc5c4oc(=O)n5C4CCC(=O)NC4=O)CC3)cc2)C1 (some centres unmarked)', 'KAT2B (Homo sapiens)', '< 1 nM'),
  ('CN1C[C@H](Nc2cnn(C)c(=O)c2Cl)C[C@H](c2ccc(C(=O)N3CCC4(CCC(c5ccc(C6CCC(=O)NC6=O)cc5F)CC4)CC3)cc2)C1 (some centres unmarked)', 'KAT2B (Homo sapiens)', '1 to 30 nM');

Please fill in: DC50 reported for CN1C[C@H](Nc2cnn(C)c(=O)c2Cl)C[C@H](c2ccc(C(=O)N3CCC4(CCN(Cc5ccc(C6CCC(=O)NC6=O)c(F)c5)CC4)CC3)cc2)C1 (some centres unmarked) = < 1 nM

DC50 reported for this compound Cc1cc(N2CCC3(CCN(C(=O)c4ccc([C@H]5C[C@@H](Nc6cnn(C)c(=O)c6Br)CN(C)C5)cc4)CC3)CC2)c(F)cc1C1CCC(=O)NC1=O (some centres unmarked) : > 30 nM

Lookup result for CN1C[C@H](Nc2cnn(C)c(=O)c2Cl)C[C@H](c2ccc(C(=O)N3CCC4(CC3)CCN(c3ccc(C5CCC(=O)NC5=O)c(F)c3)CC4)cc2)C1 (some centres unmarked) [Compound 228] ; measured DC50: < 1 nM
